assay: Stability in aqueous media (FaSSIF, SGF, PBS); assay type: physicochemical; settings: FaSSIF pH 6.5, 37° C., 6 h
endpointName: FaSSIF (pH 6.5) % remaining 6 h (%)

CCOC(=O)OCOC(=O)c1ccc2c(c1)nc(OCCOCCCCNCc1cc(F)c(OC(F)(F)F)c(F)c1)c1ccncc12 [Example 13] ... 99.8
CC(C)(C)OC(=O)OCOC(=O)c1ccc2c(c1)nc(OCCOCCCCNCc1cc(F)c(OC(F)(F)F)c(F)c1)c1ccncc12 [Example 15] ... 97.9
CCC(=O)OCOC(=O)c1ccc2c(c1)nc(OCCOCCCCNCc1cc(F)c(OC(F)(F)F)c(F)c1)c1ccncc12 [Example 12] ... 96.5
CC(C)OC(=O)OCOC(=O)c1ccc2c(c1)nc(OCCOCCCCNCc1cc(F)c(OC(F)(F)F)c(F)c1)c1ccncc12 [Example 14] ... 93.6
CC(C)OC(=O)c1ccc2c(c1)nc(OCCOCCCCNCc1cc(F)c(OC(F)(F)F)c(F)c1)c1ccncc12 [Example 2] ... 80.5
CCOC(=O)c1ccc2c(c1)nc(OCCOCCCCNCc1cc(F)c(OC(F)(F)F)c(F)c1)c1ccncc12 [Example 8] ... 102.6
CN(C)CCOC(=O)c1ccc2c(c1)nc(OCCOCCCCNCc1cc(F)c(OC(F)(F)F)c(F)c1)c1ccncc12 [Example 3] ... 101.8
CC(C)(C)C(=O)OCOC(=O)c1ccc2c(c1)nc(OCCOCCCCNCc1cc(F)c(OC(F)(F)F)c(F)c1)c1ccncc12 [Example 6] ... 97.0

---

test: Comparative solubility data for Reference Example 1 (thermodynamic and kinetic); type: physicochemical; details: aqueous buffer, kinetic from dmso stock; kinetic, phosphate buffer, initial pH 7.4
endpointName: solubility (µg/mL)

O=C(O)c1ccc2c(c1)nc(OCCOCCCCNCc1cc(F)c(OC(F)(F)F)c(F)c1)c1ccncc12 [Reference Example 1] ... 31

---

# Lookup of reported solubility kinetic at 24 h keyed by entry
assay: Solubility in simulated fluids (kinetic solubility, 24 hours); format: physicochemical; conditions: simulated gastric fluid, thermodynamic from solid; SGF (pH 1.2), 24 hour timepoint, room temperature
endpointName: solubility kinetic at 24 h (µg/mL)

Cc1oc(=O)oc1COC(=O)c1ccc2c(c1)nc(OCCOCCCCNCc1cc(F)c(OC(F)(F)F)c(F)c1)c1ccncc12 ... 18.5
CC(=O)OCOC(=O)c1ccc2c(c1)nc(OCCOCCCCNCc1cc(F)c(OC(F)(F)F)c(F)c1)c1ccncc12 ... 20.9
CCOC(=O)OCOC(=O)c1ccc2c(c1)nc(OCCOCCCCNCc1cc(F)c(OC(F)(F)F)c(F)c1)c1ccncc12 ... 17.8
CC(C)OC(=O)OCOC(=O)c1ccc2c(c1)nc(OCCOCCCCNCc1cc(F)c(OC(F)(F)F)c(F)c1)c1ccncc12 ... 15
CCC(=O)OCOC(=O)c1ccc2c(c1)nc(OCCOCCCCNCc1cc(F)c(OC(F)(F)F)c(F)c1)c1ccncc12 ... 7.4
O=C(OCOC(=O)c1ccc2c(c1)nc(OCCOCCCCNCc1cc(F)c(OC(F)(F)F)c(F)c1)c1ccncc12)OC1CCOCC1 ... 39.4
CCOC(=O)c1ccc2c(c1)nc(OCCOCCCCNCc1cc(F)c(OC(F)(F)F)c(F)c1)c1ccncc12 ... 17.8
CC(C)(C)OC(=O)c1ccc2c(c1)nc(OCCOCCCCNCc1cc(F)c(OC(F)(F)F)c(F)c1)c1ccncc12 ... 16.1
